- TARGET_SYSTEM: Type-1 angiotensin II receptor (Bos taurus, UniProt P25104)
- Sequence (P25104 whole entry): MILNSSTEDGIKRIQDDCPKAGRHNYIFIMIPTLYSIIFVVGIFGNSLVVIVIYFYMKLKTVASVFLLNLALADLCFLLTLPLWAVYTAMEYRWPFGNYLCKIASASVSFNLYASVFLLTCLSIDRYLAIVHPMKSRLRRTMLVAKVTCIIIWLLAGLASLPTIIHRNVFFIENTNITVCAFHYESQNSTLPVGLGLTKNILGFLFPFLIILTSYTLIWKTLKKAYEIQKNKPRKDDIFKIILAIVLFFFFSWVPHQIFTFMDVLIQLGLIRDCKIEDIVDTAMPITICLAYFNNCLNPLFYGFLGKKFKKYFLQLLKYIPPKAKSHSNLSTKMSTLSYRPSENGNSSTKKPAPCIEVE
Where a SMILES comes first, the peptide text is derived from it. [ ]: non-standard residue; d: D form. The star is where a group is joined. X1 = CCCCCCCCCCCCCCCC(=O)OCCC(=O)*; Palmitoyl = CCCCCCCCCCCCCCCC(=O)*; X2 = CCCCCCCCCCCCCCCCCC*; Sar = CNCC(=O)O
OBSERVABLE: Kd (nM)

COMPOUND	TARGET_SYSTEM	OBSERVED_VALUE
CC(=O)N[C@@H](CO)C(=O)N[C@@H](CCCN=C(N)N)C(=O)N[C@H](C(=O)N[C@@H](Cc1ccc(O)cc1)C(=O)N[C@H](C(=O)N[C@@H](Cc1c[nH]cn1)C(=O)N1CCC[C@H]1C(=O)N[C@@H](Cc1ccccc1)C(=O)O)C(C)C)C(C)C (Ac-SRVYVHPF-OH)	Type-1 angiotensin II receptor (Bos taurus, UniProt P25104)	17.8
CCCCCCCCCCCCCCCCCCOc1ccc(C[C@H](NC(=O)[C@@H](NC(=O)[C@H](CCCNC(=N)N)NC(=O)CNC)C(C)C)C(=O)N[C@H](C(=O)N[C@@H](Cc2cnc[nH]2)C(=O)N2CCC[C@H]2C(=O)N[C@@H](Cc2ccccc2)C(=O)O)C(C)C)cc1 (H-[Sar]RVY(X2)VHPF-OH)	Type-1 angiotensin II receptor (Bos taurus, UniProt P25104)	1550
CCCCCCCCCCCCCCCC(=O)OCCC(=O)N[C@@H](CCCN=C(N)N)C(=O)N[C@H](C(=O)N[C@@H](Cc1ccc(O)cc1)C(=O)N[C@H](C(=O)N[C@@H](Cc1c[nH]cn1)C(=O)N1CCC[C@H]1C(=O)N[C@@H](Cc1ccccc1)C(=O)O)C(C)C)C(C)C (X1-RVYVHPF-OH)	Type-1 angiotensin II receptor (Bos taurus, UniProt P25104)	2750
CCCCCCCCCCCCCCCC(=O)OC[C@H](NC(C)=O)C(=O)N[C@@H](CCCNC(=N)N)C(=O)N[C@H](C(=O)N[C@@H](Cc1ccc(O)cc1)C(=O)N[C@H](C(=O)N[C@@H](Cc1cnc[nH]1)C(=O)N1CCC[C@H]1C(=O)N[C@@H](Cc1ccccc1)C(=O)O)C(C)C)C(C)C (Ac-S(Palmitoyl)RVYVHPF-OH)	Type-1 angiotensin II receptor (Bos taurus, UniProt P25104)	490

###

- TARGET_SYSTEM: Type-1 angiotensin II receptor (Bos taurus) (UniProt P25104)
- ASSAY: Relative affinity for type 1 Angiotensin II receptor of bovine adrenocortical membranes compared to angiotensin
Where a SMILES comes first, the peptide text is derived from it. The star is where a group is joined. X1 = CCCCCCCCCCCCCCCC(=O)OCCC(=O)*; Palmitoyl = CCCCCCCCCCCCCCCC(=O)*
Please assign a class to every record based on measured RA, with ranges label 0: < 2; label 1: ≥ 2 and < 30; label 2: ≥ 30

COMPOUND	CLASSIFICATION
CC[C@H](C)[C@H](NC(=O)[C@H](Cc1ccc(O)cc1)NC(=O)[C@@H](NC(=O)[C@H](CCCNC(=N)N)NC(=O)[C@@H](N)CC(=O)O)C(C)C)C(=O)N[C@@H](Cc1cnc[nH]1)C(=O)N1CCC[C@H]1C(=O)N[C@@H](Cc1ccccc1)C(=O)O	label 2
CC(=O)N[C@@H](CO)C(=O)N[C@@H](CCCN=C(N)N)C(=O)N[C@H](C(=O)N[C@@H](Cc1ccc(O)cc1)C(=O)N[C@H](C(=O)N[C@@H](Cc1c[nH]cn1)C(=O)N1CCC[C@H]1C(=O)N[C@H](Cc1cccc2ccccc12)C(=O)O)C(C)C)C(C)C	label 0
CCCCCCCCCCCCCCCC(=O)Oc1ccc(C[C@H](NC(=O)[C@@H](NC(=O)[C@H](CCCN=C(N)N)NC(=O)CNC)C(C)C)C(=O)N[C@H](C(=O)N[C@@H](Cc2c[nH]cn2)C(=O)N2CCC[C@H]2C(=O)N[C@H](Cc2ccc3ccccc3c2)C(=O)O)C(C)C)cc1	label 1
CC(C)[C@H](NC(=O)[C@H](CCCN=C(N)N)NC(=O)CCO)C(=O)N[C@@H](Cc1ccc(O)cc1)C(=O)N[C@H](C(=O)N[C@@H](Cc1c[nH]cn1)C(=O)N1CCC[C@H]1C(=O)N[C@H](Cc1ccccc1)C(=O)O)C(C)C	label 0
CNCC(=O)N[C@@H](CCCN=C(N)N)C(=O)N[C@H](C(=O)N[C@@H](Cc1ccc(O)cc1)C(=O)N[C@H](C(=O)N[C@@H](Cc1c[nH]cn1)C(=O)N1CCC[C@H]1C(=O)N[C@H](Cc1ccccc1)C(=O)O)C(C)C)C(C)C	label 2
CCCCCCCCCCCCCCCC(=O)OC[C@H](NC(C)=O)C(=O)N[C@@H](CCCN=C(N)N)C(=O)N[C@H](C(=O)N[C@@H](Cc1ccc(O)cc1)C(=O)N[C@H](C(=O)N[C@@H](Cc1c[nH]cn1)C(=O)N1CCC[C@H]1C(=O)N[C@@H](Cc1ccccc1)C(=O)O)C(C)C)C(C)C (Ac-S(Palmitoyl)RVYVHPF-OH)	label 0
CC(=O)N[C@@H](CO)C(=O)N[C@@H](CCCN=C(N)N)C(=O)N[C@H](C(=O)N[C@@H](Cc1ccc(O)cc1)C(=O)N[C@H](C(=O)N[C@@H](Cc1c[nH]cn1)C(=O)N1CCC[C@H]1C(=O)N[C@@H](Cc1ccccc1)C(=O)O)C(C)C)C(C)C (Ac-SRVYVHPF-OH)	label 2
CC(C)[C@H](NC(=O)[C@H](CCCN=C(N)N)NC(=O)[C@@H](N)CO)C(=O)N[C@@H](Cc1ccc(O)cc1)C(=O)N[C@H](C(=O)N[C@@H](Cc1c[nH]cn1)C(=O)N1CCC[C@H]1C(=O)N[C@@H](Cc1ccccc1)C(=O)O)C(C)C (H-SRVYVHPF-OH)	label 2
CCCCCCCCCCCCCCCC(=O)OCCC(=O)N[C@@H](CCCN=C(N)N)C(=O)N[C@H](C(=O)N[C@@H](Cc1ccc(O)cc1)C(=O)N[C@H](C(=O)N[C@@H](Cc1c[nH]cn1)C(=O)N1CCC[C@H]1C(=O)N[C@@H](Cc1ccccc1)C(=O)O)C(C)C)C(C)C (X1-RVYVHPF-OH)	label 0
CNCC(=O)N[C@@H](CCCN=C(N)N)C(=O)N[C@H](C(=O)N[C@@H](Cc1ccc(O)cc1)C(=O)N[C@H](C(=O)N[C@@H](Cc1c[nH]cn1)C(=O)N1CCC[C@H]1C(=O)N[C@H](Cc1ccc2ccccc2c1)C(=O)O)C(C)C)C(C)C	label 2
CCCCCCCCCCCCCCCC(=O)OC[C@H](NC(C)=O)C(=O)N[C@@H](CCCN=C(N)N)C(=O)N[C@H](C(=O)N[C@@H](Cc1ccc(O)cc1)C(=O)N[C@H](C(=O)N[C@@H](Cc1c[nH]cn1)C(=O)N1CCC[C@H]1C(=O)N[C@H](Cc1cccc2ccccc12)C(=O)O)C(C)C)C(C)C	label 0
CC(C)[C@H](NC(=O)[C@H](CCCN=C(N)N)NC(=O)CCO)C(=O)N[C@@H](Cc1ccc(O)cc1)C(=O)N[C@H](C(=O)N[C@@H](Cc1c[nH]cn1)C(=O)N1CCC[C@H]1C(=O)N[C@@H](Cc1ccccc1)C(=O)O)C(C)C	label 1
CCCCCCCCCCCCCCCC(=O)Oc1ccc(C[C@H](NC(=O)[C@@H](NC(=O)[C@H](CCCN=C(N)N)NC(=O)CNC)C(C)C)C(=O)N[C@H](C(=O)N[C@@H](Cc2c[nH]cn2)C(=O)N2CCC[C@H]2C(=O)N[C@H](Cc2ccccc2)C(=O)O)C(C)C)cc1	label 2
